Molecular target: IKZF2 (Homo sapiens, UniProt Q96SW2+Q9UKS7)
Sequence (Q9UKS7 whole entry): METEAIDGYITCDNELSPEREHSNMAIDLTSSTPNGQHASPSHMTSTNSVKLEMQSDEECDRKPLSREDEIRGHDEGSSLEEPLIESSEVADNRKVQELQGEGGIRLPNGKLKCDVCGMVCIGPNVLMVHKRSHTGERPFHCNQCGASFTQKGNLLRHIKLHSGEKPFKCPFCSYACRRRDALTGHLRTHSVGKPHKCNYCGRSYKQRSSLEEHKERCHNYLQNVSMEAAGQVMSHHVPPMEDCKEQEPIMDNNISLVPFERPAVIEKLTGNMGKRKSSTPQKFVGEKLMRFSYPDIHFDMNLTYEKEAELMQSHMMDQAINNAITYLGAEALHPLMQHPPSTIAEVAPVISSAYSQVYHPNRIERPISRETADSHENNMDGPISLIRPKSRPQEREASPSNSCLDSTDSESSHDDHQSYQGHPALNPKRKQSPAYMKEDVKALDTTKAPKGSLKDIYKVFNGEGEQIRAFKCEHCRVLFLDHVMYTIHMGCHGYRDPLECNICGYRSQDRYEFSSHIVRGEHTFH
Sequence (Q96SW2 whole entry): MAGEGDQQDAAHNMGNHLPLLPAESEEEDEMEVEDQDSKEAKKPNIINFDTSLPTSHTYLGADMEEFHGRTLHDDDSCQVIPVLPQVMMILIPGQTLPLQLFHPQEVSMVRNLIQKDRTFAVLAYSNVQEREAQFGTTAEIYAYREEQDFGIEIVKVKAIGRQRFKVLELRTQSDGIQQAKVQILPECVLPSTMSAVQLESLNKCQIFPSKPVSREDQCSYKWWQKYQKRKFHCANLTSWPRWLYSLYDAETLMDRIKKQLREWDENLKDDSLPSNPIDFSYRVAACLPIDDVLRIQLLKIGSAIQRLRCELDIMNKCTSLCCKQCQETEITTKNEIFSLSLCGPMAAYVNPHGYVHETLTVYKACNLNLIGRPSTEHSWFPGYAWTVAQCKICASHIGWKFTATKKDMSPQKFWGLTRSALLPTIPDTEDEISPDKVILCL
Sequence (Q16531 whole entry partner): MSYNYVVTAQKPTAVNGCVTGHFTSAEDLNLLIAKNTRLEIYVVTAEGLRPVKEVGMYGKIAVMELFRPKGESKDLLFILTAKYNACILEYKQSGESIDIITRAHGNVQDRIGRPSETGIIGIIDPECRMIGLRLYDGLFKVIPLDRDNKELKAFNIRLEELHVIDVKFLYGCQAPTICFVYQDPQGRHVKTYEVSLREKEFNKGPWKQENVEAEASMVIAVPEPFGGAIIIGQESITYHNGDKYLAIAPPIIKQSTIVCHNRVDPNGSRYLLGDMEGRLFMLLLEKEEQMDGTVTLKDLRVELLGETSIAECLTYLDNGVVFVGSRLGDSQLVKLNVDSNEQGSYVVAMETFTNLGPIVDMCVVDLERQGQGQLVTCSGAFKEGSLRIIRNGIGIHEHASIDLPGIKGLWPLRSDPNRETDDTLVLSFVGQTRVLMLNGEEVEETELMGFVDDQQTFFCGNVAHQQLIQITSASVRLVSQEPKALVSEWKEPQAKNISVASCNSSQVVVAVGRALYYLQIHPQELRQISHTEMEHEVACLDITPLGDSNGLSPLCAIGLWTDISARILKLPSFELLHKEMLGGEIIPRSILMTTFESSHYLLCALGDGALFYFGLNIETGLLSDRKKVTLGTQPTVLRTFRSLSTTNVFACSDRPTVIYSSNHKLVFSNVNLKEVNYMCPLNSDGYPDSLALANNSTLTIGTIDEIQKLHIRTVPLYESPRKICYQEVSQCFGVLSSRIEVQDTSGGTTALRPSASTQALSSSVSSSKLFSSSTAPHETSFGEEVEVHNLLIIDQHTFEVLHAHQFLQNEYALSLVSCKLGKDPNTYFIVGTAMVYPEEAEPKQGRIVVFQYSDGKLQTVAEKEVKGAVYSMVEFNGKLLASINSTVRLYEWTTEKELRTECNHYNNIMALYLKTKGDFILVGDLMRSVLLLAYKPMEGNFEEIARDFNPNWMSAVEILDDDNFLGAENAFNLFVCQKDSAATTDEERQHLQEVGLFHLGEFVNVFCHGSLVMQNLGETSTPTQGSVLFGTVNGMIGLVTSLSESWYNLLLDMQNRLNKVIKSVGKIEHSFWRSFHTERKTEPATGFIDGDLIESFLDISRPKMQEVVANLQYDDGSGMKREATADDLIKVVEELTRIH
Assay: Prolabel quantification of IKZF2 protein levels in 293GT cells
Assay type: cell-based
Conditions: 24 h, 10 μM, 24 h, 293GT cells; read-out: IKZF2 % protein reduction at 10 μM, 24 h
Measured Metric: inhibition at 10 µM (%)
Please give a number only; it is taken to be in %.

Compound: O=C1CCC(N2Cc3cc(C4CCN(Cc5cnc(N6CCCC6)nc5)CC4)ccc3C2=O)C(=O)N1 (stereo not shown)
inhibition at 10 µM [%]: 75
//
Compound: Cc1cc(C)cc(CN2CCC(c3ccc4c(c3)CN(C3CCC(=O)NC3=O)C4=O)CC2)c1 (stereo not shown)
inhibition at 10 µM [%]: 55
//
Compound: O=C1CCC(N2Cc3cc(C4CCN(Cc5ccc6ccccc6c5)CC4)ccc3C2=O)C(=O)N1 (stereo not shown)
inhibition at 10 µM [%]: 80
//
Compound: NC(=O)c1nc(CN2CCC(c3ccc4c(c3)CN(C3CCC(=O)NC3=O)C4=O)CC2)no1 (stereo not shown)
inhibition at 10 µM [%]: 40
//
Compound: COC(=O)c1coc(CN2CCC(c3ccc4c(c3)CN(C3CCC(=O)NC3=O)C4=O)CC2)n1 (stereo not shown)
inhibition at 10 µM [%]: 40

Consider O=C1CCC(N2Cc3cc(C4CCN(Cc5ccc(Cl)cc5)CC4)ccc3C2=O)C(=O)N1 (stereo not shown) . Its measured inhibition at 10 µM is 55

Consider O=C1CCC(N2Cc3cc(C4CCN(Cc5ncccn5)CC4)ccc3C2=O)C(=O)N1 (stereo not shown) . Its measured inhibition at 10 µM is 20

====

Biological target: IKZF2 (Homo sapiens, UniProt Q96SW2+Q9UKS7)
Experiment: Prolabel quantification of IKZF2 protein levels in 293GT cells
Assay type: cell-based
Conditions: Prolabel assay, 293GT cells; read-out: IKZF2 EC50
Class boundaries, taken from values of DC50, are as follows: LOW = under 10 nM, MID = from 10 nM up to 90 nM, HIGH = 90 nM and over

Compound: O=C1CCC(N2Cc3cc(C4CCN(Cc5ccc6scnc6c5)CC4)ccc3C2=O)C(=O)N1 (stereo not drawn)
Assigned Label: LOW
--
Compound: N#Cc1ccccc1CN1CCC(c2ccc3c(c2)CN(C2CCC(=O)NC2=O)C3=O)CC1 (stereo not drawn)
Assigned Label: MID
--
Compound: O=C1CCC(N2Cc3cc(C4CCN(Cc5ncon5)CC4)ccc3C2=O)C(=O)N1 (stereo not drawn)
Assigned Label: HIGH
--
Compound: CC(C)c1ccc(CN2CCC(c3ccc4c(c3)CN(C3CCC(=O)NC3=O)C4=O)CC2)cc1 (stereo not drawn)
Assigned Label: LOW
--
Compound: O=C1CCC(N2Cc3cc(C4CCN(Cc5cc[nH]n5)CC4)ccc3C2=O)C(=O)N1 (stereo not drawn)
Assigned Label: MID
--
Compound: Cc1nc2sccn2c1CN1CCC(c2ccc3c(c2)CN(C2CCC(=O)NC2=O)C3=O)CC1 (stereo not drawn)
Assigned Label: HIGH

Exercise: Note: place this compound into its band. Item: O=C1CCC(N2Cc3cc(C4CCN(Cc5cccc(S(=O)(=O)N6CCOCC6)c5)CC4)ccc3C2=O)C(=O)N1 (stereo not drawn)
Solution: LOW

Exercise: Note: place this compound into its band. Item: Cc1cc2nc(CN3CCC(c4ccc5c(c4)CN(C4CCC(=O)NC4=O)C5=O)CC3)cc(O)n2n1 (stereo not drawn)
Solution: HIGH

Exercise: Note: place this compound into its band. Item: Cc1cc(C)cc(CN2CCC(c3ccc4c(c3)CN(C3CCC(=O)NC3=O)C4=O)CC2)c1 (stereo not drawn)
Solution: MID

Exercise: Note: place this compound into its band. Item: O=C1CCC(N2Cc3cc(C4CCCN(Cc5ccccc5)CC4)ccc3C2=O)C(=O)N1 (single isomer, unassigned) [Compound I-273]
Solution: HIGH

Exercise: Note: place this compound into its band. Item: O=C1CCC(N2Cc3cc(C4CCN(Cc5ccc(CF)cc5)CC4)ccc3C2=O)C(=O)N1 (stereo not drawn)
Solution: MID

Exercise: Note: place this compound into its band. Item: Cc1ccc2sc(-c3ccc(CN4CCC(c5ccc6c(c5)CN(C5CCC(=O)NC5=O)C6=O)CC4)cc3)nc2c1 (stereo not drawn)
Solution: HIGH

Exercise: Note: place this compound into its band. Item: O=C1CCC(N2Cc3cc(C4CCN(Cc5ccccc5OC(F)F)CC4)ccc3C2=O)C(=O)N1 (stereo not drawn)
Solution: MID

Exercise: Note: place this compound into its band. Item: O=C1CCC(N2Cc3cc(C4CCN(Cc5cc6n(n5)CCCC6)CC4)ccc3C2=O)C(=O)N1 (stereo not drawn)
Solution: MID

====

Molecular target: IKZF2 (Homo sapiens, UniProt Q96SW2+Q9UKS7)
Test: Prolabel quantification of IKZF2 protein levels in 293GT cells
Type: cell-based
Details: 24 h, 10 μM, 24 h, 293GT cells; read-out: IKZF2 % protein reduction at 10 μM, 24 h
Measured Metric: inhibition at 10 µM (%)
Please give a number only; it is taken to be in %.

Molecule: CC(C)(C)c1cccc(CN2CCC(c3ccc4c(c3)CN(C3CCC(=O)NC3=O)C4=O)CC2)c1 (stereo not shown) [Compound I-107]
Measured Metric: inhibition at 10 µM
Numeric Readout: 80
--
Molecule: Cc1ccc(CN2CCC(c3ccc4c(c3)CN(C3CCC(=O)NC3=O)C4=O)CC2)cc1F (stereo not shown) [Compound I-69]
Measured Metric: inhibition at 10 µM
Numeric Readout: 80
--
Molecule: O=C1CCC(N2Cc3cc(C4CCN(CC5CCCc6ccccc65)CC4)ccc3C2=O)C(=O)N1 (stereo not shown) [Compound I-168]
Measured Metric: inhibition at 10 µM
Numeric Readout: 55

Consider Cc1ccc2sc(-c3ccc(CN4CCC(c5ccc6c(c5)CN(C5CCC(=O)NC5=O)C6=O)CC4)cc3)nc2c1 (stereo not shown) [Compound I-225] . Its measured inhibition at 10 µM is 65

Consider O=C1CCC(N2Cc3cc(C4CCN(Cc5ccc(F)c(F)c5)CC4)ccc3C2=O)C(=O)N1 (stereo not shown) [Compound I-64] . Its measured inhibition at 10 µM is 75

Consider O=C1CCC(N2Cc3cc(C4CCN(Cc5nc(-c6ccccc6)c[nH]5)CC4)ccc3C2=O)C(=O)N1 (stereo not shown) [Compound I-154] . Its measured inhibition at 10 µM is 85

Consider N#CCOc1ccc(CN2CCC(c3ccc4c(c3)CN(C3CCC(=O)NC3=O)C4=O)CC2)cc1 (stereo not shown) [Compound I-218] . Its measured inhibition at 10 µM is 60

====

Target: IKZF2 (Homo sapiens, UniProt Q96SW2+Q9UKS7)
Assay: Prolabel quantification of IKZF2 protein levels in 293GT cells
Assay type: cell-based
Details: Prolabel assay, 293GT cells; read-out: IKZF2 EC50
# if measured DC50 < 30 nM: Met  # else: Not met

Solved entries (count: 5):
Molecule: Cn1ccc(CN2CCC(c3ccc4c(c3)CN(C3CCC(=O)NC3=O)C4=O)CC2)n1 (stereo not drawn)
Assigned Label: Not met
//
Molecule: O=C1CCC(N2Cc3cc(C4CCN(Cc5ccnn5-c5ccccc5)CC4)ccc3C2=O)C(=O)N1 (stereo not drawn)
Assigned Label: Not met
//
Molecule: O=C1CCC(N2Cc3cc(C4=CCN(Cc5ccccc5)C4)ccc3C2=O)C(=O)N1 (stereo not drawn)
Assigned Label: Not met
//
Molecule: Cc1ccc(CN2CCC(c3ccc4c(c3)CN(C3CCC(=O)NC3=O)C4=O)CC2)cc1F (stereo not drawn)
Assigned Label: Met
//
Molecule: CC(C)(C)c1cccc(CN2CCC(c3ccc4c(c3)CN(C3CCC(=O)NC3=O)C4=O)CC2)c1 (stereo not drawn)
Assigned Label: Met

Exercise: Please determine if O=C1CCC(N2Cc3cc(C4CCN(Cc5cc(F)cc(F)c5)CC4)ccc3C2=O)C(=O)N1 (stereo not drawn) is below 30 nM in terms of DC50.
Solution: Met

Exercise: Please determine if O=C1CCC(N2Cc3cc(C4CCN(C(c5ccccc5)C(F)F)CC4)ccc3C2=O)C(=O)N1 (stereo not drawn) is below 30 nM in terms of DC50.
Solution: Not met

Exercise: Please determine if O=C1CCC(N2Cc3cc(C4CCN(Cc5nccc6ccccc56)CC4)ccc3C2=O)C(=O)N1 (stereo not drawn) is below 30 nM in terms of DC50.
Solution: Met

====

Target: IKZF2 (Homo sapiens, UniProt Q96SW2+Q9UKS7)
Experiment: Prolabel quantification of IKZF2 protein levels in 293GT cells
Assay type: cell-based
Details: Prolabel assay, 293GT cells; read-out: IKZF2 EC50
Protocol: The Prolabel system from DiscoverX was used to develop high-throughput and quantitative assays to measure changes in IKZF1, IKZF2 and GSPT1 protein levels in response to compounds. […] The complementary fragment of beta-galactosidase (from DiscoverX), is added to the prolabel tag to form an active beta galactosidase enzyme whose activity can be precisely measured. In this way, the levels of a fusion protein with the prolabel tag can be quantified in cell lysates. […]
Measured Metric: DC50 (nM)
Please give a number only; it is taken to be in nM.

Examples with answers:
Compound: O=C1CCC(N2Cc3cc(C4CCN(Cc5cc(F)ccc5F)CC4)ccc3C2=O)C(=O)N1 (stereo not drawn)
DC50, nM: 36
--
Compound: CC(C)Oc1cccc(CN2CCC(c3ccc4c(c3)CN(C3CCC(=O)NC3=O)C4=O)CC2)n1 (stereo not drawn)
DC50, nM: 140
--
Compound: O=C1CCC(N2Cc3cc(C4CCN(Cc5ccc(-n6cccn6)cc5)CC4)ccc3C2=O)C(=O)N1 (stereo not drawn)
DC50, nM: 18

Kindly review the next compound as well.
Consider CC(c1ccccc1)N1CCC(c2ccc3c(c2)CN(C2CCC(=O)NC2=O)C3=O)CC1 (single isomer, unassigned) [Compound I-230] . Its measured DC50 is 9
